Origin of values: patent US20240279215A1

# System Tested: human NAMPT (Homo sapiens (Human), UniProt P43490)
# Sequence (P43490 whole entry): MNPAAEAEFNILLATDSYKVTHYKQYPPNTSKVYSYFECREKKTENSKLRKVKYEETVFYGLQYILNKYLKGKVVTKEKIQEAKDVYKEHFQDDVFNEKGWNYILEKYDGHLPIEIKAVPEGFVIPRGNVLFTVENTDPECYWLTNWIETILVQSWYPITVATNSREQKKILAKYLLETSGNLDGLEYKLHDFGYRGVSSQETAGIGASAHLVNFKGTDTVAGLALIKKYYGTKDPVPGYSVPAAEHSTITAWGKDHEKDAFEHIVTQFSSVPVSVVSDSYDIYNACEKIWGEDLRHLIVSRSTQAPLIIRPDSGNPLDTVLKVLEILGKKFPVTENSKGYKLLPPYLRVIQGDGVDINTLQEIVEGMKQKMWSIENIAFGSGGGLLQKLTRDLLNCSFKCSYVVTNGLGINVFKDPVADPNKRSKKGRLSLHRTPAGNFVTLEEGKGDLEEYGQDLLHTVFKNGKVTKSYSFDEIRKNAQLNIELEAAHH
# Assay Procedure: NMN fluorescence biochemical assay (human recombinant NAMPT enzyme assay)
Quick reference for AC1.4 Human among some molecules
# value in µM; strip the unit string

Past entries and their recorded results:
Molecule | AC1.4 Human / µM
C[C@H](NC(=O)c1cncc(F)c1)c1ccc(NC(=O)OCc2ccc(Cl)cc2)cc1 [Compound 159] | 1.33
COC(=O)N1C2CCC1CC(Cc1ccc(NC(=O)OCc3cnco3)cc1)C2 (centres unmarked) [Compound 407] | 0.26
Cn1ccc(CC(=O)NCc2ccc(NC(=O)OCc3ccc(Cl)cc3)cc2)n1 [Compound 295] | 4.57
CN(C)C(=O)N1CC2(CC(Cc3ccc(NC(=O)OCc4cnco4)cc3F)C2)C1 [Compound 398] | 0.08
CCc1ncoc1C(=O)N(C)Cc1ccc(NC(=O)OCc2ccc(Cl)cc2)cc1 [Compound 176] | 1.47
CO[C@@H]1CCCN(C(=O)Cc2ccc(NC(=O)OCc3ccc(Cl)cc3)cc2)C1 [Compound 229] | 2.13

// fetch AC1.4 Human for O=C(Nc1ccc(Cc2cnccn2)cc1)OCc1ccc(Cl)cc1 [Compound 303] ; system: human NAMPT (Homo sapiens (Human), UniProt P43490)
4.87

Enter recorded AC1.4 Human with human NAMPT (Homo sapiens (Human), UniProt P43490) for Cn1cc(CC(=O)NCc2ccc(NC(=O)OCc3ccc(Cl)cc3)cc2)cn1 [Compound 315] here.
5.91
